- target or test system: human ether-à-go-go-related gene (hERG) potassium channel (human, UniProt Q12809);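 further: peak tail current of the secondary pulse compared with the same well before compound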
- Sequence (Q12809 whole entry, looked up): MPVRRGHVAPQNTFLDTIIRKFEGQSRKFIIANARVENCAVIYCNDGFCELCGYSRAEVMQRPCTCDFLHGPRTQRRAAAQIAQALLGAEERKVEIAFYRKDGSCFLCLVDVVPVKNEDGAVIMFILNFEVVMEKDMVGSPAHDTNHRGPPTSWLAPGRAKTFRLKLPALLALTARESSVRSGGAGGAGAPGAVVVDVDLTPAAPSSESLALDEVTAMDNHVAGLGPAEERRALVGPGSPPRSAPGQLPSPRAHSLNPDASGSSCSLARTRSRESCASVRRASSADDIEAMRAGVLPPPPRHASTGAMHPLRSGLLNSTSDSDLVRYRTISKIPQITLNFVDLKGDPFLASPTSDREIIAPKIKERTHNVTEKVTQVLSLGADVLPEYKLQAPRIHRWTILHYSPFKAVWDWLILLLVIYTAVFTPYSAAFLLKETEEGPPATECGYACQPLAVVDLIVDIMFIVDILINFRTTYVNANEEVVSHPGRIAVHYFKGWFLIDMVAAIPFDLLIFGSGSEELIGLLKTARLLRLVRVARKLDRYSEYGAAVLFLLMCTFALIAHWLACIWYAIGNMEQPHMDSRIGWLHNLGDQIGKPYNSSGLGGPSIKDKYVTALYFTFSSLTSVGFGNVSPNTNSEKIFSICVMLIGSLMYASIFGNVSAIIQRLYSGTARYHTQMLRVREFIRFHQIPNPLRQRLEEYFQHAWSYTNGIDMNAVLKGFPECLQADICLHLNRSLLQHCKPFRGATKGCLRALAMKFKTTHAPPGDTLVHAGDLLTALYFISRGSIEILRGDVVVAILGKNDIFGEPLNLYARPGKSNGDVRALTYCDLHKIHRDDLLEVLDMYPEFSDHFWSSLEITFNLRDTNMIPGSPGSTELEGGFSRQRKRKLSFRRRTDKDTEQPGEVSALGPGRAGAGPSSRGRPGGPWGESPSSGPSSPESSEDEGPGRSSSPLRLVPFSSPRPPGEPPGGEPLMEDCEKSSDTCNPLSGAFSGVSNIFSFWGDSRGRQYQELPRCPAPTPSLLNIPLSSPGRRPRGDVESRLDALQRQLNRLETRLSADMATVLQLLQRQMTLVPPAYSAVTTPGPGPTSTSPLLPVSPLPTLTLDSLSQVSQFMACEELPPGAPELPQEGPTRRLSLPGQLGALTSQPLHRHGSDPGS
- method: primary screen, population patch clamp on CHO cells stably expressing hERG; higher = less effect of the substance
About 14,000 (4.5%) of roughly 310,000 compounds showed an effect of 50% or more. The effect is printed as a negative number. The entries come from a sample that favours strong results as a whole.
assay metric: hERG current change (%, negative = inhibition) at 10uM
Answer with the value and then the unit.

I have this compound here, CC1CCCCN1C(=O)c1ccc(COc2ccc([N+](=O)[O-])cc2)o1 (stereo not shown) , and I need its recorded hERG current change (%, negative = inhibition) at 10uM.
-69.9%

Another: COc1cc(C(NC=O)C(=O)Nc2c(C)cccc2C)ccc1O (stereo not shown)
15.1%

What would you report for CC(OC(=O)c1nn(C)c(=O)c2ccccc12)C(=O)Nc1ccc(S(N)(=O)=O)cc1 (stereo not shown) ?
11.6%

What would you report for CNC(=O)c1nnc(Cc2ccc(F)cc2)o1 ?
9.51%

What do you get for O=C(/C=C/c1ccccc1)NCCS(=O)(=O)N1CCN(c2ccccc2F)CC1 ?
-3.41%

Repeat for the following compound: Cc1ccc(NC(=O)N2CCC(NC(=O)C(C)(C)C)CC2)cc1
10.1%

Same thing, different compound: O=C(O)c1ccc(COc2ccc([N+](=O)[O-])cc2)o1
23.2%

And what about the compound COc1ccc(S(=O)(=O)NCC2CCCN(Cc3cn(C)nc3C)C2)cc1 (stereo not shown) ?
8.1%

Next: Cc1ccc(S(=O)(=O)CCC(=O)Nc2ccc(Br)cc2)cc1
-7.37%

Try the compound COc1ccc(-c2cc(C(F)F)n3ncc(C(=O)N4CCN(C(=O)c5ccco5)CC4)c3n2)cc1
-34.8%
